Molecular target: Wild-type EGFR (Homo sapiens, UniProt P00533)
Construct: Assays to measure cellular phosphorylation of endogenous p-EGFR in cell lysates; endogenous in cells
Sequence (P00533 25-1210): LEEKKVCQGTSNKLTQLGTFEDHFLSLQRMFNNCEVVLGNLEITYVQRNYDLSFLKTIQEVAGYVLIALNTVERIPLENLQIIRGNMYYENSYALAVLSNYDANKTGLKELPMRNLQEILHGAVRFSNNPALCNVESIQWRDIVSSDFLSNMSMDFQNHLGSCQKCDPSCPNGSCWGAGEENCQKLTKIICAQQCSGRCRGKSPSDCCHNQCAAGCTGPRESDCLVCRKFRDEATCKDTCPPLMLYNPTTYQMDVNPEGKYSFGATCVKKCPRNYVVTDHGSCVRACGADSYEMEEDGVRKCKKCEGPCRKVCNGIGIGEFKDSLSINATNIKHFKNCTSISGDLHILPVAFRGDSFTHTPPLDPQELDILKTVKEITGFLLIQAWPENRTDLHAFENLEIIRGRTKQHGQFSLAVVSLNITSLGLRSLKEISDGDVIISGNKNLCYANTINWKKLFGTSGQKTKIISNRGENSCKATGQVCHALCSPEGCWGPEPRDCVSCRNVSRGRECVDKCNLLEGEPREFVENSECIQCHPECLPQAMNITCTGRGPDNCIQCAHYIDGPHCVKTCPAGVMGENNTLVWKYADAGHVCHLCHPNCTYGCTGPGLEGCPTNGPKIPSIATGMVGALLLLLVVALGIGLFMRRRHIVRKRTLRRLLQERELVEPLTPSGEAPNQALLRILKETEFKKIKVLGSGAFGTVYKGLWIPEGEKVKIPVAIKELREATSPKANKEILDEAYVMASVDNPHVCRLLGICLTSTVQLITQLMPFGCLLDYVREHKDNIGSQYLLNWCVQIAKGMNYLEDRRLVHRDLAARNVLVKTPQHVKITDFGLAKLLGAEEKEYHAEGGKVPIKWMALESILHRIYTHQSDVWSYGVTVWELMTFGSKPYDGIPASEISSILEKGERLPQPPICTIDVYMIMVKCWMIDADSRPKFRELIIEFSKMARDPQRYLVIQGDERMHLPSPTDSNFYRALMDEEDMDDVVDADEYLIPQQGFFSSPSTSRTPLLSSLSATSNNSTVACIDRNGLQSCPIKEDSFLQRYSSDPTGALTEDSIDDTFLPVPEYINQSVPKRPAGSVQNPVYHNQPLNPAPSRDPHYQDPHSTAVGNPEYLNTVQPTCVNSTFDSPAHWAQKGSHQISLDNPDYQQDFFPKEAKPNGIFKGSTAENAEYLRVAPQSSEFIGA
Test: Wild-type EGFR cellular phosphorylation assay
Conditions: LoVo human colon cells; endogenous p-EGFR in cell lysates by ELISA; 2 h with compound, then stimulated 100 ng/ml for 10 minutes; read-out: Assay 3 (IC50)
Protocol: Assay 3: Wild-Type EGFR Cellular Phosphorylation Assay The human colon cell line LoVo were obtained from the American type Culture Collection. […] Cells were grown in a humidified incubator at 37° C. with 5% CO2. Assays to measure cellular phosphorylation of endogenous p-EGFR in cell lysates were carried out according to the protocol described in the R&D Systems DuoSet IC Human Phospho-EGF R ELISA (R&D Systems catalogue number #DYC1095). […]
Range-based classes on measured IC50: low interval (below 500 nM), middle interval (500 nM to below 1000 nM), high interval (1000 nM or more)

Which class holds C=CC(=O)Nc1cc(Nc2ncc(C)c(-c3cn(C)c4ccccc34)n2)c(OC)cc1N1CC(N(C)C)C1 [Example 35] ? low interval

Into which bin does this compound go? C=CC(=O)Nc1cc(Nc2ncc(C)c(-c3cn(C)c4ccccc34)n2)c(OC)cc1N1CC[C@@H](N(C)C)C1 [Example 20] low interval

Which class does C=CC(=O)Nc1cc(Nc2ncc(Cl)c(-c3cnn4ccccc34)n2)c(OC)cc1N1CC[C@H](N(C)C)C1 [Example 12] fall in? high interval

Category of C=CC(=O)Nc1cc(Nc2nccc(-c3cnn4ccccc34)n2)c(OC)cc1N1CC2(CCCN2C)C1 [Example 56] , please. high interval

Category of C=CC(=O)Nc1cc(Nc2ncc(Cl)c(-c3c[nH]c4ccccc34)n2)c(OC)cc1N1CCN(C)CC1 [Example 17] : middle interval

Class for C=CC(=O)Nc1cc(Nc2nccc(-c3cn(C)c4ccccc34)n2)c(OC)cc1N(C)CCNC [Example 60] ? middle interval

Where would C=CC(=O)Nc1cc(Nc2nccc(-c3cn(C)c4ccccc34)n2)c(OC)cc1C1=CCN(C)CC1 [Example 48] land among the classes by reported IC50? high interval

Could you place C=CC(=O)Nc1cc(Nc2nccc(-c3cnn4c3CCCC4)n2)c(OC)cc1N1CC2(CCCN2C)C1 [Example 47] in its proper category? Many thanks. high interval

Class label required: C=CC(=O)Nc1cc(Nc2nccc(-c3cnn4ccccc34)n2)c(OC)cc1N1CC[C@@H](N(C)C)C1 [Example 52] high interval

Which class is correct for the following compound? C=CC(=O)Nc1cc(Nc2nccc(-c3cnn4ccccc34)n2)c(OC)cc1N(C)CCN(C)C [Example 54] low interval

Could you place C=CC(=O)Nc1cc(Nc2ncc(Cl)c(-c3c[nH]c4ccccc34)n2)c(OC)cc1N1CC(N(C)C)C1 [Example 37] in its proper category? Many thanks. low interval

Band for C=CC(=O)Nc1cc(Nc2ncc(C#N)c(-c3cnn4ccccc34)n2)c(OC)cc1N1CC(N(C)C)C1 [Example 40] ? high interval

Please let me know in which category the item C=CC(=O)Nc1cc(Nc2ncc(C#N)c(-c3cnn4ccccc34)n2)c(OC)cc1N1CCN(C)CC1 [Example 14] belongs. high interval
